targetUnderTest: T1, human IL-23 (human, UniProt P29460 23-328; Q9NPF7 20-189)
T1 construct: Recombinant (Ebioscience); HIS-tagged in flow cytometry, biotinylated in some assays; also called hIL-23; rhIL-23
T1 sequence 1: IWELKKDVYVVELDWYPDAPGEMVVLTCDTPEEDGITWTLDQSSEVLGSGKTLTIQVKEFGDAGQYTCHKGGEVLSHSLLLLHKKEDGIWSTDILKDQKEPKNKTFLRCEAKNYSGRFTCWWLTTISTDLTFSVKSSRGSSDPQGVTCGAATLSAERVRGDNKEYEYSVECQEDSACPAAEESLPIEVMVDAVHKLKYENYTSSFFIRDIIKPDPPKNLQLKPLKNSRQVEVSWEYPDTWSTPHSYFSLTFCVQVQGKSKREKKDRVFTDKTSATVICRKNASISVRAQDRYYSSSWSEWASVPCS
T1 sequence 2: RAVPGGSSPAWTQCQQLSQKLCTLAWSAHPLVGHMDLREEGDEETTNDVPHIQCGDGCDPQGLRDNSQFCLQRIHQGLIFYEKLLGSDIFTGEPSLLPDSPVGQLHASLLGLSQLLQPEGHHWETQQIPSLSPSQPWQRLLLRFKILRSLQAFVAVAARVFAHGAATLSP
procedureSummary: ELISA, coated IL-23

| binder | binding result |
| --- | --- |
| Antibody 22 (antibody, human IgG1, kappa, V domains shown) VH: EVQLQQSGADLVRSGASIKLSCTASGFNIKDYYMHWVKQRPEQGLEWIGWIDPENGDTEYAPKFQGKATMTADTSSNTAYLQLSSLTSEDTAVYYCNAVKELRYFDVWGAGTTVTVSS VL: DIVLTQSPATLSVTPGDSVSLSCRASQSISINLHWYQQKSHESPRLLIKFASQSISGIPSRFSGYGSGTDFTLSINSVETEDFGRYFCQQSNSWPLTFGAGTKLELKR | binds |
| Antibody 18 (antibody, human IgG1, kappa, V domains shown) VH: EVQLQQSGADLVRSGASIKLSCTASGFNIKDYYMHWVKQRPEQGLEWIGWIDPENGDTEYAPKFQGKATMTADTSSNTAYLQLSSLTSEDTAVYYCNAPKELRYFDVWGAGTTVTVSS VL: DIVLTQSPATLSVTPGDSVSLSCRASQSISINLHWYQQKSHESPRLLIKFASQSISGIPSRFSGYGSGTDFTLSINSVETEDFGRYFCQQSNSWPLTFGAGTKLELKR | binds |
